All figures here come from PubChem BioAssay AID1159580.

Kindly state normalized growth for each of the entries shown.
Assay: chemical genetic growth profiling, strain panel (AID 1159580);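 also: tested at 20 µM; growth read once vehicle control cultures reached saturation at 30 °C; 1 = growth at the plate median or of vehicle wells; lower values mean less growth of the strain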
Settings: S. cerevisiae deletion strains, growth OD, locus YNL322C, strain KRE1 (second series), active compounds read low
Among all 5,500 compounds or so, about 2,000 (36%) were called active. Inconclusive results (about 18%) are left out. Some of the results follow.
Lab note: write the figure by itself, no unit.

### Prompt // normalized growth lookup, key: CC(=O)O[C@@](C)(CCC=C(C)C)C1CC=C(C)CC1 (some centres undefined)
### Response 0.99

### Prompt Same question, COc1ccc2cc1Oc1ccc(cc1)C[C@H]1c3cc(c(OC)cc3CCN1C)Oc1c(OC)c(OC)cc3c1[C@H](C2)N(C)CC3 this time
### Response 1.01

### Prompt Subsequent entry: C=CCc1ccc2c(c1)OCO2
### Response 1.02

### Prompt Same question, CN1CCc2cc3c(cc2C1O)OCO3 (centres undefined) this time
### Response 1

* * *

Test: chemical genetic growth profiling, strain panel (AID 1159580);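 also: tested at 20 µM; growth read once vehicle control cultures reached saturation at 30 °C; 1 = growth at the plate median or of vehicle wells; lower values mean less growth of the strain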
Settings: S. cerevisiae deletion strains, growth OD, locus YMR223W, strain ubp8, active compounds read low
The campaign covered roughly 5,500 compounds. About 2,000 (36%) were called active. About 18% were inconclusive and are not listed. Some of the results follow.
measured.endpoint: normalized growth
When you answer, write just the number.

### Prompt # query: normalized growth of entry Oc1ccc(O)cc1
### Response 0.996

### Prompt Also O=C(O)C1CC([C@@H]2CCCCN2)CN2CCCCC12 (stereo partly drawn) , if possible.
### Response 0.981

### Prompt Likewise for N=c1nc(N2CCCCC2)cc(N)n1O ?
### Response 0.945

### Prompt Quick one: C/C=C(/C(=C/C)c1ccc(O)cc1)c1ccc(O)cc1
### Response 0.745

### Prompt // repeat for CC1(C)C2CC[C@]3(C)C(C(=O)C=C4[C@@H]5C[C@@](C)(C(=O)O)CC[C@]5(C)CC[C@]43C)[C@@]2(C)CC[C@@H]1O (stereo partly drawn) and report
### Response 0.978

### Prompt Same question for COc1ccc(-c2coc3c(OC)c(OC)cc(OC)c3c2=O)cc1 please.
### Response 0.994

### Prompt Now try CC1(C)C2CC[C@]3(C)C(C(=O)C=C4[C@H]5C[C@@](C)(C(=O)O)CC[C@]5(C)CC[C@]43C)[C@@]2(C)CC[C@@H]1O (stereo partly drawn) .
### Response 0.994

### Prompt Thanks! And CN=C(NC#N)NCCSCc1nc[nH]c1C ?
### Response 1.02

* * *

Assay: chemical genetic growth profiling, strain panel (AID 1159580);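 also: tested at 20 µM; growth read once vehicle control cultures reached saturation at 30 °C; 1 = growth at the plate median or of vehicle wells; lower values mean less growth of the strain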
Conditions: S. cerevisiae deletion strains, growth OD, locus YNL307C, strain MCK1, active compounds read low
About 2,000 (36%) of roughly 5,500 compounds were called active. Not shown: some 18% with an inconclusive outcome. The list shows a part of the results.
Doc: threshold 0.9 (exclusive). Items with normalized growth beneath it return y; others return n.

### Prompt Is it true that normalized growth reported for C1CCc2nnnn2CC1 is less than 0.9?
### Response n

### Prompt COc1ccc(C2CC(=O)c3ccc(OC)cc3O2)cc1 (stereo unspecified) ?
### Response y

### Prompt Now the compound CCCCCC(C)N (stereo unspecified)
### Response n

### Prompt Request: C[N+](C)(C)CC(=O)[O-]
### Response n

### Prompt # repeat for C[CH2][Hg][S]c1ccccc1C(=O)O
### Response y

### Prompt // same read-out, input: COc1cc(OC)c2c(c1)OC(c1ccccc1)CC2=O (stereo unspecified)
### Response n

### Prompt Again, but for O=C1CC(c2ccccc2)Oc2ccccc21 (stereo unspecified)
### Response n

### Prompt Now the compound CC(=O)O[C@H]1C(=O)[C@@]2(C)C([C@H](OC(=O)c3ccccc3)[C@]3(O)C[C@H](OC(=O)[C@H](O)[C@@H](NC(=O)c4ccccc4)c4ccccc4)C(C)=C1C3(C)C)[C@]1(OC(C)=O)CO[C@@H]1C[C@@H]2O (stereo partly specified)
### Response n

### Prompt Repeat with CC1(C)C2CC[C@]3(C)C(C(=O)C=C4[C@H]5C[C@@](C)(C(=O)O)CC[C@]5(C)CC[C@]43C)[C@@]2(C)CC[C@@H]1O (stereo partly specified)
### Response n

### Prompt Entry to check: COc1ccc(C(=O)c2ccccc2)c(O)c1
### Response y
